Give pIC50 for every item shown.
# subjectOfTest: Mitogen-activated protein kinase 14 (Homo sapiens)
# Sequence (Q16539 whole entry): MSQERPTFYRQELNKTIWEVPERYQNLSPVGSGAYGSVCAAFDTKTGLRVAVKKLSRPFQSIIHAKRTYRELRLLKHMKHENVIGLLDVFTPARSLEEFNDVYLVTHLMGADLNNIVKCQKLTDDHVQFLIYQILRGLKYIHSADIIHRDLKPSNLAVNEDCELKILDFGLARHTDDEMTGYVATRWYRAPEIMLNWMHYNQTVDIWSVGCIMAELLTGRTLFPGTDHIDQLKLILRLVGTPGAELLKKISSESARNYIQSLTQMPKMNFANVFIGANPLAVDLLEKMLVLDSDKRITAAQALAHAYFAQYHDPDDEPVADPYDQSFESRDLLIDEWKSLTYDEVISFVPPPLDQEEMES
# protocolDetails: Inhibitory activity against Mitogen-activated protein kinase p38
Numbers only, as −log10 of the molar value.

Hey, quick one: what's pIC50 for each of these?
1. Cc1cccc(-c2nn3c(c2-c2ccc(O)cc2)CCC3)n1
2. Cc1cccc(-c2n[nH]cc2-c2ccc(O)cc2)n1
3. CC(C)c1cccc(-c2nn3c(c2-c2ccnc4ccccc24)CCC3)n1
4. CCc1cccc(-c2nn3c(c2-c2ccnc4ccccc24)CCC3)n1

Reply:
[5.37, 4.51, 4.82, 6.21]
